Molecular target: FGFR4 (Homo sapiens, UniProt P22455)
Construct: purchased Invitrogen
Sequence (P22455 22-802): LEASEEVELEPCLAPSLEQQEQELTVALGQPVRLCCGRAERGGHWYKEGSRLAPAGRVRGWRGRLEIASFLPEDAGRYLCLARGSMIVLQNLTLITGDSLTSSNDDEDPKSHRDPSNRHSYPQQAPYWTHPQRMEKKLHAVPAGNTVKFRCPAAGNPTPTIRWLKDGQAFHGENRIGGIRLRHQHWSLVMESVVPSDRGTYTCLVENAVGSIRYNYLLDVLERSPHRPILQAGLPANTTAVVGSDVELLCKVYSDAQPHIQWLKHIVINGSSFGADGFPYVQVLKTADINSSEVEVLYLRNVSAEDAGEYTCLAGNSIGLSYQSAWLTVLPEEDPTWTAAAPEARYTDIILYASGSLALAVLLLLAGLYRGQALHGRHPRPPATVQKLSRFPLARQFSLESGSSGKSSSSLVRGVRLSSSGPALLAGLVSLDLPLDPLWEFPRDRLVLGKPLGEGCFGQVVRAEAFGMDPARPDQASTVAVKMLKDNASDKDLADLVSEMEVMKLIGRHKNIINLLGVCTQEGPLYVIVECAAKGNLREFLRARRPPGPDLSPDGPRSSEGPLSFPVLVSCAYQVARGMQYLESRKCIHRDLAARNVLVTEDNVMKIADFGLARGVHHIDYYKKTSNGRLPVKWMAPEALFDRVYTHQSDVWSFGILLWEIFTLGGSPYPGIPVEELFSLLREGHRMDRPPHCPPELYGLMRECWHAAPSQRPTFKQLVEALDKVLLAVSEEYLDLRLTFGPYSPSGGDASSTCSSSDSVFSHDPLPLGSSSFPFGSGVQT
Assay: IC50 Profiling of Kinase Activity Inhibition (Kinase HotSpot assay)
Format: biochemical
Conditions: Table 1
pIC50: −log10 of the molar value.
Reported property: pIC50

Please review the entries below; each comes with its answer.
{"Given smiles": "C=CC(=O)Nc1ccccc1Nc1cc(N(CCOC)C(=O)Nc2c(Cl)c(OC)cc(OC)c2Cl)ncn1", "Quantitative readout": 8.40}
{"Given smiles": "C=CC(=O)Nc1ccccc1Nc1cc(N(CCNC(C)C)C(=O)Nc2c(Cl)c(OC)cc(OC)c2Cl)ncn1", "Quantitative readout": 6.74}
{"Given smiles": "C=CC(=O)Nc1ccccc1Nc1cc(N(C)C(=O)Nc2cc(OC)cc(OC)c2Cl)ncn1", "Quantitative readout": 6.70}

A: C=CC(=O)Nc1c(F)cccc1Nc1cc(N(C)C(=O)Nc2c(Cl)c(OC)cc(OC)c2Cl)ncn1
B: C=CC(=O)Nc1c(Nc2cc(N(C)C(=O)Nc3c(Cl)c(OC)cc(OC)c3Cl)ncn2)cccc1OC
Q. Of A and B , which one carries the higher reported pIC50? Choose, then provide that item's label.
A. A
(A: 7.89, B: 6.46)

---

Molecular target: FGFR1 (Homo sapiens)
Construct: purchased Invitrogen
Sequence (P11362 22-822): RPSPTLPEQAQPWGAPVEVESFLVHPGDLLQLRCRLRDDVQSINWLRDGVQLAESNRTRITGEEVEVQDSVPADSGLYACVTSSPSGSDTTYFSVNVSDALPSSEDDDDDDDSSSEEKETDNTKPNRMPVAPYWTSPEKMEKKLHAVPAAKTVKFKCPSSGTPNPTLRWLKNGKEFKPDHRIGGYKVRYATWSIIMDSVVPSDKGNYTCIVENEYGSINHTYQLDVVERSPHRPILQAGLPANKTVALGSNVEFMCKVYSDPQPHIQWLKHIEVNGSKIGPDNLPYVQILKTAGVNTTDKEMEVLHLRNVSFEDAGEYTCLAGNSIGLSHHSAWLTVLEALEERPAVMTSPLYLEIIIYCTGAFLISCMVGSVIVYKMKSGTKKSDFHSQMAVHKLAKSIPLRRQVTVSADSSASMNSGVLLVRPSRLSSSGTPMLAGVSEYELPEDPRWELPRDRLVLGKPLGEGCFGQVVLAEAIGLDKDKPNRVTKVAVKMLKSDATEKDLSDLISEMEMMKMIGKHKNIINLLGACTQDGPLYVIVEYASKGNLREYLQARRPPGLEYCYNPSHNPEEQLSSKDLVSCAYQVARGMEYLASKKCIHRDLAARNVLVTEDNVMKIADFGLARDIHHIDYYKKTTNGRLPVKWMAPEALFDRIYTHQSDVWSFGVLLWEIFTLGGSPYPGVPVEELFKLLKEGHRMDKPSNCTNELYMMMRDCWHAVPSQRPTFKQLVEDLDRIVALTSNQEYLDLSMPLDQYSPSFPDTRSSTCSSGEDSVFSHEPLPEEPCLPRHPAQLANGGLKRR
Experiment: IC50 Profiling of Kinase Activity Inhibition (Kinase HotSpot assay)
Format: biochemical
Conditions: Table 1
pIC50: −log10 of the molar value.
Reported property: pIC50

{"Given smiles": "C=CC(=O)Nc1ccccc1Nc1cc(N(C)C(=O)Nc2cccc(OC)c2Cl)ncn1", "Reported property": "pIC50", "Result": "< 5.00"}

Considering C=CC(=O)Nc1ccccc1Nc1cc(N(C)C(=O)Nc2cc(OC)cc(OC)c2Cl)ncn1 , its pIC50 with FGFR1 (Homo sapiens) was recorded as < 5.00

---

Target: FGFR4 (Homo sapiens, UniProt P22455)
Construct: purchased Invitrogen
Experiment: IC50 Profiling of Kinase Activity Inhibition (Kinase HotSpot assay)
Assay type: biochemical
Reported property: IC50

Form: compound = C=CC(=O)Nc1cc(N2CCN(C(C)=O)CC2)ccc1Nc1cc(N(C)C(=O)Nc2c(Cl)c(OC)cc(OC)c2Cl)ncn1 ; IC50 = < 1 nM

---

Target: FGFR4 (Homo sapiens)
Construct: purchased Invitrogen
Test: IC50 Profiling of Kinase Activity Inhibition (Kinase HotSpot assay)
Type: biochemical
Conditions: Table 1
pIC50: −log10 of the molar value.
# maps each entry to its pIC50

{"Molecule": "C=CC(=O)Nc1cc(C(C)OC)ccc1Nc1cc(N(C)C(=O)Nc2c(Cl)c(OC)cc(OC)c2Cl)ncn1 (stereo not shown) [Compound 155]", "Result": "> 9.00"}
{"Molecule": "C=CC(=O)Nc1cccc(C)c1Nc1cc(N(C)C(=O)Nc2c(Cl)c(OC)cc(OC)c2Cl)ncn1 [Compound 165]", "Result": "> 9.00"}
{"Molecule": "C=CC(=O)Nc1cc(N2C[C@@H](C)N[C@@H](C)C2)ccc1Nc1cc(N(C)C(=O)Nc2c(Cl)c(OC)cc(OC)c2Cl)ncn1 [Compound 124]", "Result": "> 9.00"}

Form: molecule = C=CC(=O)Nc1cc(N2CCN(CC)CC2)ccc1Nc1cc(N(C)C(=O)Nc2c(F)c(OC)cc(OC)c2F)ncn1 [Compound 143] ; pIC50 = 8.00

Form: molecule = C=CC(=O)Nc1cc(N(C)CCO)ccc1Nc1cc(N(C)C(=O)Nc2c(Cl)c(OC)cc(OC)c2Cl)ncn1 [Compound 158] ; pIC50 = > 9.00

Form: molecule = C=CC(=O)Nc1cc(COC)ccc1Nc1cc(N(C)C(=O)Nc2c(Cl)c(OC)cc(OC)c2Cl)ncn1 [Compound 147] ; pIC50 = > 9.00
